Entries and their pIC50 values follow.
STUDY SYSTEM: c-Met (Homo sapiens, UniProt P08581)
Construct: Kinases are expressed as either kinase domains or full length constructs; made in house
Sequence (P08581 25-1390): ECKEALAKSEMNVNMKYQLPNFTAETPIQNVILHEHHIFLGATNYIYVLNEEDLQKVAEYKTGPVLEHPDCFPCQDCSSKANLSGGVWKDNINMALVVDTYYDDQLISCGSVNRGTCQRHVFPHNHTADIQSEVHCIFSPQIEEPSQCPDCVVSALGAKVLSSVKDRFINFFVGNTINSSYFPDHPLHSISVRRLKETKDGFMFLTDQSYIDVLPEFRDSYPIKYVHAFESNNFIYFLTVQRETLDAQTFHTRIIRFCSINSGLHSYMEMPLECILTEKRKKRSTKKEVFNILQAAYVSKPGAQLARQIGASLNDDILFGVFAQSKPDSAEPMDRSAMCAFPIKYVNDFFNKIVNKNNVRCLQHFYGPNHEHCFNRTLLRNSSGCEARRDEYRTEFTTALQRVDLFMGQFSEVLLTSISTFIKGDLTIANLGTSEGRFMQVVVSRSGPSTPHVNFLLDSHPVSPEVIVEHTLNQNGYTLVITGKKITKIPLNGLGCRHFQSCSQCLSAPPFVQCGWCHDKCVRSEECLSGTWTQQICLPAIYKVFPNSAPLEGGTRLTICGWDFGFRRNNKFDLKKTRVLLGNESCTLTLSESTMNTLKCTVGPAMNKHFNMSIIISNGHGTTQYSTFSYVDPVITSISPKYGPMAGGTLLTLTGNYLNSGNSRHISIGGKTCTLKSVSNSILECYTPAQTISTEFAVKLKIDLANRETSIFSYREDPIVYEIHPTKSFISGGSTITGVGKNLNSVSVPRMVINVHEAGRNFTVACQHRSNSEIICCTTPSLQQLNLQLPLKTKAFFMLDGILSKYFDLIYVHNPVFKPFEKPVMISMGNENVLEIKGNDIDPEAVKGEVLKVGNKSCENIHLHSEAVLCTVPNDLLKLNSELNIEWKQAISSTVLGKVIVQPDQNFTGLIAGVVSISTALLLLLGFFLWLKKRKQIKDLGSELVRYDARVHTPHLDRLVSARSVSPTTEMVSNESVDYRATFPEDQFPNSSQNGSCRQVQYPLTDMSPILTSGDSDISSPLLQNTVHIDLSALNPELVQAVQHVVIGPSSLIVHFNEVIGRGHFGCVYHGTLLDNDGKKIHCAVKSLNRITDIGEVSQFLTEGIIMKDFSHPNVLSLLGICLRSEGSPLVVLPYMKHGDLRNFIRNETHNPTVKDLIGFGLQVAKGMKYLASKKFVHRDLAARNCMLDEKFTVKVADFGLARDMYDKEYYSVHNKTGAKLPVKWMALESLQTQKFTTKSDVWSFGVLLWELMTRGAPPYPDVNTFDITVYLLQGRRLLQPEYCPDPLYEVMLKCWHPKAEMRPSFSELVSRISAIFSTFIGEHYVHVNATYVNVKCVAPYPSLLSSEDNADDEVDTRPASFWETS
ASSAY INFO: Kinase inhibition assay (33P transfer), c-Met
Format: biochemical
RUN PARAMETERS: Table 2, kinase inhibition class; read-out: Met-1
Description: The inhibitor compounds described herein are screened in the following manner. […] Kinases are expressed as either kinase domains or full length constructs fused to glutathione S-transferase (GST) or polyHistidine tagged fusion proteins in either E. colior Baculovirus-High Five expression systems. […] Kinase activity and inhibition are measured essentially by established protocols (Braunwalder et al., 1996). […]
pIC50: −log10 of the molar value.
MEASURED METRIC: pIC50

COMPOUND: CC(C)Nc1ncccc1-c1ncnc(Nc2ccc(C(N)=O)cc2)n1 [Compound 1084]
STUDY SYSTEM: c-Met (Homo sapiens, UniProt P08581)
MEASURED METRIC: pIC50
TEST VALUE: 5.00 to 5.16

COMPOUND: COc1ccc(-c2cc(Nc3ncnc(Nc4ccc(CC(N)=O)cc4)n3)[nH]n2)cc1 [Compound 576]
STUDY SYSTEM: c-Met (Homo sapiens, UniProt P08581)
MEASURED METRIC: pIC50
TEST VALUE: > 6.02

COMPOUND: COc1cc(Nc2ncnc(Nc3ccccc3F)n2)cc(OC)c1OC [Compound 65]
STUDY SYSTEM: c-Met (Homo sapiens, UniProt P08581)
MEASURED METRIC: pIC50
TEST VALUE: < 4.92

COMPOUND: COc1cc(Nc2ncnc(Nc3ccc(NS(=O)(=O)c4ccc([N+](=O)[O-])cc4)cc3)n2)cc(OC)c1OC [Compound 692]
STUDY SYSTEM: c-Met (Homo sapiens, UniProt P08581)
MEASURED METRIC: pIC50
TEST VALUE: 5.20 to 5.36

COMPOUND: COc1ccccc1Nc1ncnc(-n2cccc2)n1 [Compound 279]
STUDY SYSTEM: c-Met (Homo sapiens, UniProt P08581)
MEASURED METRIC: pIC50
TEST VALUE: < 4.77

COMPOUND: CC(=O)Nc1ccc(Nc2ncnc(-c3cccs3)n2)cc1 [Compound 355]
STUDY SYSTEM: c-Met (Homo sapiens, UniProt P08581)
MEASURED METRIC: pIC50
TEST VALUE: < 4.84

COMPOUND: CCOC(=O)C(Cc1cccc(Nc2ncnc(Nc3cc(-c4ccco4)n[nH]3)n2)c1)(NC(C)=O)C(=O)OCC [Compound 481]
STUDY SYSTEM: c-Met (Homo sapiens, UniProt P08581)
MEASURED METRIC: pIC50
TEST VALUE: < 5.09

COMPOUND: COc1cc(Nc2ncnc(N3CCCc4ccccc43)n2)cc(OC)c1OC [Compound 609]
STUDY SYSTEM: c-Met (Homo sapiens, UniProt P08581)
MEASURED METRIC: pIC50
TEST VALUE: 5.21 to 5.99

====

STUDY SYSTEM: c-Met (Homo sapiens)
Construct: Kinases are expressed as either kinase domains or full length constructs; made in house
ASSAY INFO: Kinase inhibition assay (33P transfer), c-Met
Type: biochemical
RUN PARAMETERS: Table 2, kinase inhibition class; read-out: Met-1
pIC50: −log10 of the molar value.

COMPOUND: CCN(CC)CCOc1cc(Nc2ncnc(Nc3cc(OC)c(OC)c(OC)c3)n2)ccc1OC [Compound 600]
STUDY SYSTEM: c-Met (Homo sapiens)
pIC50: < 5.04

COMPOUND: CN(c1cccc(Cl)c1)c1ncnc(NCC2CCCO2)n1 (stereo not shown) [Compound 739]
STUDY SYSTEM: c-Met (Homo sapiens)
pIC50: < 4.85

COMPOUND: NC(=O)c1cccc(Nc2ncnc(-c3cccs3)n2)c1 [Compound 358]
STUDY SYSTEM: c-Met (Homo sapiens)
pIC50: < 4.82

COMPOUND: COc1ccc(Nc2nc3ccccc3n2-c2ncnc(Nc3cc(OC)c(OC)c(OC)c3)n2)c(C)c1 [Compound 558]
STUDY SYSTEM: c-Met (Homo sapiens)
pIC50: 5.17 to 5.33

COMPOUND: COc1ccc2c(c1)CCCN2c1ncnc(Nc2cc(OC)c(OC)c(OC)c2)n1 [Compound 631]
STUDY SYSTEM: c-Met (Homo sapiens)
pIC50: > 6.02

COMPOUND: O=c1[nH]c2ccccc2n1-c1ncnc(Nc2ccc3ccccc3c2)n1 [Compound 684]
STUDY SYSTEM: c-Met (Homo sapiens)
pIC50: < 4.90

COMPOUND: Cc1cc(Br)ccc1Nc1ncnc(-n2cccc2)n1 [Compound 282]
STUDY SYSTEM: c-Met (Homo sapiens)
pIC50: 4.97 to 5.14

COMPOUND: COc1cc(Nc2ncnc(N[C@H]3CCCc4ccccc43)n2)cc(OC)c1OC [Compound 619]
STUDY SYSTEM: c-Met (Homo sapiens)
pIC50: < 4.96

COMPOUND: COc1cc(Nc2ncnc(-n3c(Nc4ccc(OC(F)(F)F)cc4)nc4ccccc43)n2)cc(OC)c1OC [Compound 1050]
STUDY SYSTEM: c-Met (Homo sapiens)
pIC50: 5.20 to 5.36

COMPOUND: Cc1cccc(Nc2ncnc(Nc3cccc(Br)c3)n2)c1 [Compound 109]
STUDY SYSTEM: c-Met (Homo sapiens)
pIC50: < 4.90

COMPOUND: c1ccc(CNc2nc3ccccc3n2-c2ncnc(Nc3cccc(Cc4nnn[nH]4)c3)n2)cc1 [Compound 957]
STUDY SYSTEM: c-Met (Homo sapiens)
pIC50: 5.30 to 6.08

COMPOUND: COc1cc(Nc2ncnc(-n3ccc4ccccc43)n2)cc(OC)c1OC [Compound 185]
STUDY SYSTEM: c-Met (Homo sapiens)
pIC50: 4.92 to 5.03

COMPOUND: c1ccc(CCNc2ncnc(Nc3ccc4c(cnn4Cc4ccccc4)c3)n2)cc1 [Compound 734]
STUDY SYSTEM: c-Met (Homo sapiens)
pIC50: 4.97 to 5.08

COMPOUND: COc1cc(Nc2ncnc(-n3ccc4cc(F)ccc43)n2)cc(OC)c1OC [Compound 441]
STUDY SYSTEM: c-Met (Homo sapiens)
pIC50: < 4.94

COMPOUND: COC(=O)c1ccc(-c2cc(Nc3ncnc(Nc4cccc(CC(=O)O)c4)n3)[nH]n2)cc1 [Compound 604]
STUDY SYSTEM: c-Met (Homo sapiens)
pIC50: > 6.05

COMPOUND: COc1ccc(N(C)c2ncnc(Nc3cc(OC)c(OC)c(OC)c3)n2)cc1 [Compound 106]
STUDY SYSTEM: c-Met (Homo sapiens)
pIC50: 5.22 to 6.00

COMPOUND: COc1cc(Nc2ncnc(N(CC(=O)OC(C)(C)C)c3ccc4c(c3)OCO4)n2)cc(OC)c1OC [Compound 309]
STUDY SYSTEM: c-Met (Homo sapiens)
pIC50: < 5.06

COMPOUND: Nc1ncnc(Nc2nc(-c3ccc(Cl)cc3)cs2)n1 [Compound 1016]
STUDY SYSTEM: c-Met (Homo sapiens)
pIC50: < 4.83

COMPOUND: COc1cc(Nc2ncnc(N3CCOCC3)n2)cc(OC)c1OC [Compound 209]
STUDY SYSTEM: c-Met (Homo sapiens)
pIC50: < 4.89

COMPOUND: c1ccc(Cn2ncc3cc(Nc4ncnc(Nc5cc(-c6ccccc6)[nH]n5)n4)ccc32)cc1 [Compound 737]
STUDY SYSTEM: c-Met (Homo sapiens)
pIC50: 5.12 to 5.28

COMPOUND: CCN(c1cccc(C)c1)c1ncnc(Nc2cc(OC)c(OC)c(OC)c2)n1 [Compound 537]
STUDY SYSTEM: c-Met (Homo sapiens)
pIC50: 5.22 to 6.00

COMPOUND: COc1cc(Nc2ncnc(Nc3cc(Cl)ccc3C)n2)cc(OC)c1OC [Compound 625]
STUDY SYSTEM: c-Met (Homo sapiens)
pIC50: < 4.95

COMPOUND: COc1cc(Nc2ncnc(Nc3c(C)n(C)n(-c4ccccc4)c3=O)n2)cc(OC)c1OC [Compound 256]
STUDY SYSTEM: c-Met (Homo sapiens)
pIC50: < 5.01

COMPOUND: NS(=O)(=O)c1ccc(CNc2ncnc(-n3c(=O)[nH]c4ccccc43)n2)cc1 [Compound 456]
STUDY SYSTEM: c-Met (Homo sapiens)
pIC50: < 4.95

COMPOUND: COC(=O)c1ccc(-c2cc(Nc3ncnc(Nc4cccc(CC(N)=O)c4)n3)[nH]n2)cc1 [Compound 577]
STUDY SYSTEM: c-Met (Homo sapiens)
pIC50: > 6.05

COMPOUND: COc1cc(Nc2ncnc(-n3c(Nc4cccc(C(N)=O)c4)nc4ccccc43)n2)cc(OC)c1OC [Compound 377]
STUDY SYSTEM: c-Met (Homo sapiens)
pIC50: 5.06 to 5.17

COMPOUND: COc1cc(Nc2ncnc(N(C)c3cccc(Cl)c3)n2)cc(OC)c1OC [Compound 603]
STUDY SYSTEM: c-Met (Homo sapiens)
pIC50: 5.22 to 6.00

COMPOUND: COc1ccc(Nc2ncnc(N(C/C=C/c3ccccc3)c3ccc(Cl)cc3)n2)cc1OC [Compound 974]
STUDY SYSTEM: c-Met (Homo sapiens)
pIC50: < 5.02

COMPOUND: CC(C)(C)c1cc(Nc2ncnc(Nc3ccc(CC(=O)O)cc3)n2)[nH]n1 [Compound 980]
STUDY SYSTEM: c-Met (Homo sapiens)
pIC50: 4.91 to 5.02

COMPOUND: COc1cc(Nc2ncnc(Nc3cc(-c4ccc(C(=O)O)cc4)n[nH]3)n2)cc(OC)c1OC [Compound 1004]
STUDY SYSTEM: c-Met (Homo sapiens)
pIC50: > 6.06

COMPOUND: COc1cc(Nc2ncnc(Nc3cccc(OC(F)(F)F)c3)n2)cc(OC)c1OC [Compound 250]
STUDY SYSTEM: c-Met (Homo sapiens)
pIC50: < 4.99

COMPOUND: COc1cc(Nc2ncnc(Nc3cc(OC)c(OC)c(OC)c3)n2)cc(OC)c1 [Compound 86]
STUDY SYSTEM: c-Met (Homo sapiens)
pIC50: < 4.96

COMPOUND: N#Cc1ccc(Nc2ncnc(-c3cccs3)n2)cc1 [Compound 356]
STUDY SYSTEM: c-Met (Homo sapiens)
pIC50: < 4.79

COMPOUND: C=CCNc1ncccc1-c1ncnc(Nc2cc(OC)c(OC)c(OC)c2)n1 [Compound 1076]
STUDY SYSTEM: c-Met (Homo sapiens)
pIC50: < 4.94
